# assay-method-text: Bioavailability of the rectal capsule versus i.v. administration (plasma AUC 0-72) in test subjects
# Type: in vivo
# settings: human, plasma, iv, mean (x) of 6 Probanden, read-out: A U C 0 - 72
endpoint: AUC at 72 h (µg·h/mL)
I only need the number, in µg·h/mL, no unit after it.

What does the record list as AUC at 72 h for CCCC1C(=O)N2C(N(C)C)=Nc3ccc(C)cc3N2C1=O (stereo not shown) [Azapropazon] ?
1080

* * *

# assay-method-text: Bioavailability of the rectal capsule versus i.v. administration (plasma AUC 0-72) in test subjects
# Type: in vivo
# settings: human, plasma, iv, geometric mean (geom.x) of 6 Probanden, read-out: A U C 0 - 72
endpoint: AUC at 72 h (µg·h/mL)
I only need the number, in µg·h/mL, no unit after it.

What does the record list as AUC at 72 h for CCCC1C(=O)N2C(N(C)C)=Nc3ccc(C)cc3N2C1=O (stereo not shown) ?
1060
